Task for the reader: assign each of the following compounds its reported inhibition at 10 µM.
# study.system: UniProt O00767
# experiment.notes: Tritiated water release assay (conversion of radiolabeled stearoyl-CoA to oleoyl-CoA)
# Assay type: biochemical
# test.context: 10 μM concentration of test compounds; microsomal SCD1, 3H stearoyl CoA, 37° C. 30 minutes; percent of control reaction; read-out: % Inhibition
Form entry: value (%) — number only.

## Input Report measured inhibition at 10 µM; entry is Oc1ccc(C#Cc2ccc(N3CCC(Oc4ccccc4F)C3)nn2)cc1 (stereo in doubt)
## Output 95

## Input Return the recorded inhibition at 10 µM value; entry: CC(C)(C)C#Cc1ccc(N2CCN(C(=O)c3cc(Cl)ccc3Cl)CC2)nc1
## Output 14

## Input Determine from records and report inhibition at 10 µM for CC(=O)NCC#Cc1ccc(N2CCN(C(=O)c3ccccc3C(F)(F)F)CC2)nc1
## Output 49

## Input Give recorded inhibition at 10 µM. Fc1ccccc1OC1CCN(c2ccc(C#Cc3ccc(C(F)(F)F)cc3)nn2)CC1
## Output 37

## Input Supply inhibition at 10 µM value. Item: Oc1ccc(C#Cc2ccc(N3CCC(O)(Cc4ccccc4)CC3)nn2)cc1
## Output 99

## Input Give reported inhibition at 10 µM value for O=C(c1ccccc1C(F)(F)F)N1CCN(c2ccc(C#Cc3cnccn3)cn2)CC1
## Output 43

* * *

# study.system: human SCD1 enzyme (Homo sapiens)
# Sequence (O00767 1-359): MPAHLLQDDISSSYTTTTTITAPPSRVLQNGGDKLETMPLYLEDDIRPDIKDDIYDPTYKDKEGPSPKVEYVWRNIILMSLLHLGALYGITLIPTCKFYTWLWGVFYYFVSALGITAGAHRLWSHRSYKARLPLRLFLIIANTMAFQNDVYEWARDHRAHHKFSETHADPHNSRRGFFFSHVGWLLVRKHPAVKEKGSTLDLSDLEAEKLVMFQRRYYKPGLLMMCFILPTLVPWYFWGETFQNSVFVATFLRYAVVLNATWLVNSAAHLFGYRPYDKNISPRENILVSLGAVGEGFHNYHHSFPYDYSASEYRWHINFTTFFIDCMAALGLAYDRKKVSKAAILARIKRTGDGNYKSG
# experiment.notes: Tritiated water release assay (conversion of radiolabeled stearoyl-CoA to oleoyl-CoA)
# Assay type: biochemical
# test.context: 10 μM concentration of test compounds; microsomal SCD1, 3H stearoyl CoA, 37° C. 30 minutes; percent of control reaction; read-out: % Inhibition
Mark YES for inhibition at 10 µM under 30%, NO if at or over.

## Input Just wondering, is inhibition at 10 µM of CCOC(=O)c1cc(C#Cc2ccc(N3CCN(C(=O)c4ccccc4C(F)(F)F)CC3)nc2)ccc1OC(C)=O [Example 34] below 30%?
## Output YES

## Input Report whether reported inhibition at 10 µM is lower than 30% (strictly) for Oc1ccc(C#Cc2ccc(NCCOc3ccccc3F)nn2)cc1 [Example 100]
## Output NO

## Input Identify whether the compound CC(=O)Oc1cccc(C#Cc2ccc(N3CCN(CC4CCCCC4)CC3)nn2)c1 [Example 56] records inhibition at 10 µM below 30%.
## Output NO

## Input Bench note: check whether CC(C)CCn1ccnc1C#Cc1ccc(N2CCN(C(=O)c3ccccc3C(F)(F)F)CC2)nc1 [Example 48] shows inhibition at 10 µM below 30%
## Output YES

## Input Strictly below 30%: is that where inhibition at 10 µM of O=C(c1ccccc1C(F)(F)F)N1CCN(c2ncc(C#Cc3ccc(N4CCCS4(=O)=O)cc3)cn2)CC1 [Example 51] sits?
## Output YES

## Input Please let me know if CC(=O)Oc1ccc(C#Cc2ccc(N3CCN(C(=O)c4ccccc4C(F)(F)F)CC3)nc2)cc1 [Example 22] shows inhibition at 10 µM below 30%.
## Output NO

## Input Dear reviewer, please state whether Oc1cccc(C#Cc2ccc(N3CCC(Oc4ccccc4C(F)(F)F)CC3)nn2)c1 [Example 91] has inhibition at 10 µM strictly beneath 30%.
## Output NO

## Input Strictly below 30% in inhibition at 10 µM? CCCCn1ccnc1C#Cc1ccc(N2CCN(C(=O)c3ccccc3C(F)(F)F)CC2)nc1 [Example 47]
## Output NO

## Input Please let me know if CCC(O)C#Cc1ccc(N2CCN(C(=O)c3ccccc3C(F)(F)F)CC2)nc1 (centres unmarked) [Example 6] shows inhibition at 10 µM below 30%.
## Output YES

## Input Consider the compound CC(=O)Oc1ccc(C#Cc2ccc(N3CC(Oc4ccccc4F)C3)nn2)cc1 [Example 66] . Is its inhibition at 10 µM strictly less than 30%?
## Output NO

## Input Would you kindly verify if inhibition at 10 µM of Fc1ccc(OCC#Cc2ccc(N3CCN(c4ccc(C(F)(F)F)cn4)CC3)nc2)cc1 [Example 14] is strictly less than 30%?
## Output NO

## Input Determine if O=C(c1ccccc1C(F)(F)F)N1CCN(c2ccc(C#CCO)cn2)CC1 [Example 1] shows inhibition at 10 µM strictly lower than 30%.
## Output NO

## Input inhibition at 10 µM strictly < 30% for this compound? O=C(c1ccccc1C(F)(F)F)N1CCN(c2ccc(C#Cc3ccc4[nH]ccc4c3)cn2)CC1 [Example 49]
## Output NO
